# measurement_notes: Solubility determination in oil (Table 10)
# condition_set: 25 °C, oil or lipid, thermodynamic from solid, Approximate Solubility in Excipient: Sesame oil, Heating Temp. 60 °C, Obs. Temp. 25 °C
# reported solubility at 24 h; entries follow

These recorded examples may help you get a feel for the data.
CCCCCCCCCCCCCCCC(=O)OCOc1ccc2c3c1O[C@H]1C(=O)CC[C@@]4(O)C(C2)N(CC2CC2)CC[C@]314 :: < 51 mg/mL
C=C1CC[C@@]2(O)C3Cc4ccc(OC(=O)CCCCCCC/C=C\C/C=C\C/C=C\CC)c5c4[C@@]2(CCN3CC2CC2)[C@H]1O5 :: 80 to 100 mg/mL
C=C1CC[C@@]2(O)C3Cc4ccc(OC(=O)CCC5CCCC5)c5c4[C@@]2(CCN3CC2CC2)[C@H]1O5 :: 106 to 141 mg/mL
C=C1CC[C@@]2(O)C3Cc4ccc(OCOC(=O)OCCCCCCCCCCCCCCCC)c5c4[C@@]2(CCN3CC2CC2)[C@H]1O5 :: > 405 mg/mL
C=C1CC[C@@]2(O)C3Cc4ccc(OC(=O)CCCCCCCCCCCCCCC)c5c4[C@@]2(CCN3CC2CC2)[C@H]1O5 :: < 50 mg/mL

Please examine the following record next.
Asked: Form field: reported solubility at 24 h of `C=C1CC[C@@]2(O)C3Cc4ccc(OCOC(=O)OCCCCCCCCCCCC)c5c4[C@@]2(CCN3CC2CC2)[C@H]1O5`
Given back: 338 to 368 mg/mL
